- System: TNFα
- experiment.description: LPS-induced TNFα production in BV2 microglia
- Type: cell-based
- study.conditions: BV2 cells
reported.property: pIC50
// returns pIC50 (minus log10 of molar concentration), number only

Quick one: pIC50 for Ac-RQIKIWFQNRRMKWKKCLRVRLASHLRKLRKRLL-NH2 [COG112] ?
7.24

###

- experiment.description: Pharmacokinetics of subcutaneously injected COG1410
- study.conditions: plasma, sc
Non-standard residues stand in square brackets, D forms with d. Residues, ends and D or L forms follow the SMILES beside them. Aib = CC(C)(N)C(=O)O
reported.property: half-life

Quick one: half-life for CC(=O)N[C@@H](C)C(=O)N[C@@H](CO)C(=O)NC(C)(C)C(=O)N[C@@H](CC(C)C)C(=O)N[C@@H](CCCNC(=N)N)C(=O)N[C@@H](CCCCN)C(=O)N[C@@H](CC(C)C)C(=O)NC(C)(C)C(=O)N[C@@H](CCCCN)C(=O)N[C@@H](CCCNC(=N)N)C(=O)N[C@@H](CC(C)C)C(=O)N[C@@H](CC(C)C)C(N)=O [COG1410, AS(Aib)LRKL(Aib)KRLL (SEQ ID NO: 5)] (Ac-AS[Aib]LRKL[Aib]KRLL-NH2; N-terminus and C-terminus assumed) ?
1 to 1.5 h
